Test: MTT cell viability / cytotoxicity on normal fibroblasts
Type: cell-based, mouse
Settings: mouse; 25 µg/mL, 48h; read-out: Cell viability on NCTC cells (%)
Exam item: assign true to entries whose viability at 48 h, 25 µg/mL is below 90% and false to entries at or above 90%. Note that a value of exactly 90% receives false.

COMPOUND | LABEL_CLASS
Cc1nn(CN(Cn2nc(C)c([N+](=O)[O-])c2C)c2ccc(Br)cc2)c(C)c1[N+](=O)[O-] | false
Cc1nn(CN(Cn2nc(C)c([N+](=O)[O-])c2C)c2ccc(F)cc2)c(C)c1[N+](=O)[O-] | false
Cc1nn(CN(Cn2nc(C)c([N+](=O)[O-])c2C)c2ccc(Cl)cc2)c(C)c1[N+](=O)[O-] | true

Prompt line: Please state whether viability at 48 h, 25 µg/mL is below 90% for C[C@@H]1CC[C@@]2(OC1)O[C@H]1C[C@H]3[C@@H]4CC=C5C[C@@H](O[C@@H]6O[C@H](CO)[C@@H](O[C@@H]7O[C@@H](C)[C@H](O)[C@@H](O)[C@H]7O)[C@H](O)[C@H]6O[C@@H]6O[C@@H](C)[C@H](O)[C@@H](O)[C@H]6O)CC[C@]5(C)[C@H]4CC[C@]3(C)[C@H]1[C@@H]2C [dioscin, reference compound]
Response line: true

Prompt line: // next record Cc1nn(CN(Cn2nc(C)c([N+](=O)[O-])c2C)c2cccc(Cl)c2)c(C)c1[N+](=O)[O-]
Response line: true

Prompt line: // repeat for Cc1nn(CN(Cn2nc(C)c([N+](=O)[O-])c2C)c2ccc(I)cc2)c(C)c1[N+](=O)[O-] and report
Response line: false

* * *

Experiment: MTT cell viability / cytotoxicity on normal fibroblasts
Type: cell-based, mouse
Conditions: mouse; 50 µg/mL, 24h; read-out: Cell viability on NCTC cells (%)
Reported viability at 24 h, 50 µg/mL values for the following compounds.
Just the number please, in %, no unit attached.

// below: answered compounds
COMPOUND | NUMERIC_READOUT
Cc1nn(CN(Cn2nc(C)c([N+](=O)[O-])c2C)c2ccc(I)cc2)c(C)c1[N+](=O)[O-] [5d] | 83
Cc1nn(CN(Cn2nc(C)c([N+](=O)[O-])c2C)c2ccc(Cl)cc2)c(C)c1[N+](=O)[O-] [5b] | 48.6
Cc1nn(CN(Cn2nc(C)c([N+](=O)[O-])c2C)c2ccc(F)cc2)c(C)c1[N+](=O)[O-] [5a] | 88.6

Now turn to the next compound.
Prompt line: Dear colleague, I am looking for the recorded viability at 24 h, 50 µg/mL of the following compound: Cc1nn(CN(Cn2nc(C)c([N+](=O)[O-])c2C)c2ccc(Br)cc2)c(C)c1[N+](=O)[O-] [5c]
Response line: 84

* * *

The compounds listed here are annotated with their viability at 24 h, 6.25 µg/mL.
Experiment: MTT cell viability / cytotoxicity on normal fibroblasts
Assay type: cell-based, mouse
Conditions: mouse; 6.25 µg/mL, 24h; read-out: Cell viability on NCTC cells (%)
Number in %, nothing else.

COMPOUND | UNIT_ANNOTATION | viability at 24 h, 6.25 µg/mL
Cc1nn(CN(Cn2nc(C)c([N+](=O)[O-])c2C)c2ccc(Br)cc2)c(C)c1[N+](=O)[O-] [5c] | % | 106
Cc1nn(CN(Cn2nc(C)c([N+](=O)[O-])c2C)c2ccc(F)cc2)c(C)c1[N+](=O)[O-] [5a] | % | 98.3
Cc1nn(CN(Cn2nc(C)c([N+](=O)[O-])c2C)c2ccc(Cl)cc2)c(C)c1[N+](=O)[O-] [5b] | % | 103
Cc1nn(CN(Cn2nc(C)c([N+](=O)[O-])c2C)c2cccc(Cl)c2)c(C)c1[N+](=O)[O-] [5e] | % | 98.6
Cc1nn(CN(Cn2nc(C)c([N+](=O)[O-])c2C)c2ccc(I)cc2)c(C)c1[N+](=O)[O-] [5d] | % | 108

Now consider the entry below.
Prompt line: Name the reported viability at 24 h, 6.25 µg/mL value associated with the compound C[C@@H]1CC[C@@]2(OC1)O[C@H]1C[C@H]3[C@@H]4CC=C5C[C@@H](O[C@@H]6O[C@H](CO)[C@@H](O[C@@H]7O[C@@H](C)[C@H](O)[C@@H](O)[C@H]7O)[C@H](O)[C@H]6O[C@@H]6O[C@@H](C)[C@H](O)[C@@H](O)[C@H]6O)CC[C@]5(C)[C@H]4CC[C@]3(C)[C@H]1[C@@H]2C [dioscin, reference compound]
Response line: 93
